Biological target: T1, human CCR8 (human, UniProt P51685 1-355)
T1 construct: Native CCR8 on human PBMC (CCR8+ CD3+ or CCR8+ CD4+ lymphocytes); also called chemokine (C-C motif) receptor 8
T1 sequence (P51685 whole entry): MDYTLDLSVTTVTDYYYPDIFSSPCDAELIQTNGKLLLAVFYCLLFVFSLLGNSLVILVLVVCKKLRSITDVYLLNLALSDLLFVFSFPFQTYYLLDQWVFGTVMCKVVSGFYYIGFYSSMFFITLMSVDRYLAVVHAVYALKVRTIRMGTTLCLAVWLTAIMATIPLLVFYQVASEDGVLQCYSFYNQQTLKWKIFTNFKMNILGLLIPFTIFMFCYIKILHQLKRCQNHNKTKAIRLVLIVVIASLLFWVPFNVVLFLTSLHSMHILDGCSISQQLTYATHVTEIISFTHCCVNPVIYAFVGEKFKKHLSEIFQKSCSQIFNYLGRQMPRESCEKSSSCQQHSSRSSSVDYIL
Test: flow blocking, PBMC CCR8+CD4+; competitor PE-AB5
% Positive cells: recorded values
endpoint: % Positive cells (%)

AB1 (antibody, V domains shown, Hybridoma monoclonal (mouse or rat); Same VH/VL entries as AB2; also called antibody 1; clone 1) VH: QVQLKESGPGLVKPSETLSLTCTVSGFSLTSYHISWVRQPPGKGLEWMGVIWGDGSKTYNSALKSRLSISRDTSKSQVFLKMRSLKTEDTATYYCARGGDSGFAYWGQGTLVTVSS VL: DIQMTQSPASLSASLEEIVTITCQASQDIGNWLSWYQQKPGKSPQLLIYGTTNLADGVPSRFSGSRSGTQYSLKISRLQVEDIGIYYCLQAYSVPLTFGSGTKLEIK	0.21
AB8 (antibody, V domains shown, Hybridoma monoclonal; also called antibody 8; clone 8) VH: AVQLVESGGGLVQPKESLKISCAASGFIFSNAAMYWVRQAPGKGLQWVARIRTKPKNYATYYIDSVKGRFTISRDDSKSMVYLQMDNLKTEDTAMYYCNTMGLTRAYYFDYWGQGVMVTVSS VL: DIQMTQSPSFLSASVGDRVTINCKASQNINRYLNWYQQKLGEAPKLLIYNANSLQTGIPSRFSGSGSGTDFTLTIRSLQPEDVATYFCLQHNSWPWTFGGGTKLELK	2.19
AB11 (antibody, V domains shown, Hybridoma monoclonal; also called antibody 11; clone 11) VH: EVQLVESGGGLVQPKGSLKLSCAASGFAFNTYAMNWVRQAPGKGLEWIARLRSKSNFYATYYADSVKDRFTISRDDSQSMLYLQMNNLKTEDTAVYYCVRGRELGPSYAMDYWGQGTSVTVSS VL: DIVMTQAAPSVPVTPGESVSISCRSSKSLLHSNGNTYLYWFLQRPGQSPQLLIYRMSNLASGVPDRFSGSGSGTAFTLRISRVEAEDVGVYYCMQHLEYPYTFGGGTKLEIK	2.58
